Molecular target: T1, CD137-hisFc fusion protein (Sino Biological Cat 10041-H03H) (human, UniProt Q07011 24-186)
T1 construct: Bought; also called recombinant human CD137 (fused with human Fc and His tag); not shown: His tag and human Fc
Assay: BLI Octet, Fab
Entries and their koff
Kindly answer with a numeric value in s⁻¹, unit omitted.

Q. Given Fab 7078 (Fab, V domains shown, Fab from E. coli; also called VH41/VL41) VH: EVQLVESGGGLVQPGGSLRLSCAASGFSLSTGGVGVGWIRQAPGKGLEWVSYISGDGDTTYYADSVKGRFTISRDNSKNTLYLQLNSLRAEDTAVYYCAREGSDTVAGDWFAYWGQGTLVTVSS VL: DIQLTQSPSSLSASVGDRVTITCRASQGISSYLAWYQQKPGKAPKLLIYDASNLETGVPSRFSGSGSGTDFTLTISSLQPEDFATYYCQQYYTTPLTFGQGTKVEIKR , state its recorded koff.
A. 0.0087

Q. Given Fab 4217 (Fab, V domains shown, Fab from E. coli; also called VH10/VL10) VH: EVQLVESGGGLVQPGGSLRLSCAASGYSISSGYYWDWIRQAPGKGLEWVSSISGDGDTTYYADSVKGRFTISRDNSKNTLYLQLNSLRAEDTAVYYCAREYYGYGYALDYWGQGTLVTVSS VL: DIQLTQSPSSLSASVGDRVTITCRASQGISSYLAWYQQKPGKAPKLLIYDASSLESGVPSRFSGSGSGTDFTLTISSLQPEDFATYYCQQYYSTPLTFGQGTKVEIKR , state its recorded koff.
A. 0.0545

Sourced from patent US20190055314A1
